abundance fitness by entry:
B1: Transcriptional repressor p66-beta, residues 415 to 455; numbered along this chain, Q8WXI9 (parent)
chain: VEPFVCAQCRTDFTPHWKQEKNGKILCEQCMTSNQKKALKA

- Variants of: B1
- method: abundance fitness (aPCA) (normalised: wild type 0, dead -1); higher = more abundant; growth selection in yeast, the domain comes from the species named
- condition context: Homo sapiens
value kind: abundance fitness

* P15D | 0.212
* T11D | 0.066
* D12E | 0.032
* P3L | 0.095
* E2N | 0.866
* E28L | -0.181
* F4K | -0.137
* C6K | -0.368
* Q8S | 0.839
* F13A | 0.139
* V5E | -0.226
* S33E | -0.007
* T11E | 0.312
* A41V | 0.153
* Q35I | -0.378
* P3D | -0.521
* A38M | -0.181
* C27W | -1.02
* T14D | -0.347
* D12K | -0.274
* V1T | -0.187
* T32W | -0.453
* K24G | -0.02
* A41G | 0.01
* Q8G | 0.934
* V5K | 0.027
* E28C | 0.074
* L26D | -0.295
* I25E | -0.118
* H16L | -0.272
* G23V | 0.092
* K24A | -0.079
* K18H | 0.155
* A7R | 0.075
* L39F | -0.425
* V1K | 0.195
* H16D | 0.015
* S33Q | -0.017
* K40G | 0.06
* Q19C | 0.103
* I25V | -0.407
* A7E | 0.188
* T11P | -0.025
* A38R | -0.19
* A38K | 0.059
* L39S | 0.094
* R10N | -0.022
* K21R | 0.129
* I25A | -0.306
* K36C | -0.275
* T11H | 0.346
* F4L | 0.036
* S33W | -0.379
* K18M | -0.011
* K24S | -0.228
* S33M | 0.048
* K37T | -0.027
* C6A | -0.771
* K24H | 0.013
* F13G | -0.116
* C30H | -0.672
* C9Y | -0.937
* P3H | 0.215
* E20R | -0.314
* Q29S | -0.156
* M31A | -0.038
* M31D | -0.106
* T32S | -0.312
* Q19E | 0.163
* Q8W | 0.557
* A41L | 0.211
* E2M | -0.019
* C30E | -1.11
* E28G | -0.066
* Q35K | -0.136
* L26I | -0.004
* V1I | -0.288
